- ASSAYED SYSTEM: human recombinant Monoacylglycerol Lipase (Homo sapiens)
- ASSAY NOTES: MAGL inactivation (kinact/KI from enzyme progress curves, T=0 min protocol)
- ASSAY CONDITIONS: from plot of Kobs vs. compound concentration, geometric mean of 2-5 determinations (b: ≥6)
OBSERVABLE: MAGL kinact/KI

> print(dat)
                                   compound  experimental.value
1  CN(C(=O)C(C)(C)C)C1CC2(CCN(C(=O)O[C@H](CO)C(F)(F)F)CC2)C1    309000 1/s per M
2  O=C(O[C@H](CO)C(F)(F)F)N1CCC2(CC1)CC(c1ccc(C(F)F)cn1)CO2 (single isomer, unassigned)      5180 1/s per M

Next:
Entry O=C(O[C@H](CO)C(F)(F)F)N1CCC2(CC1)CC(c1cc(C(F)(F)F)ccn1)C2 , MAGL kinact/KI reported as 156000 1/s per M

----------
- ASSAYED SYSTEM: human recombinant Monoacylglycerol Lipase (Homo sapiens, UniProt Q99685)
- ASSAY NOTES: MAGL enzymatic assay (IC50; 7-HCA substrate added at T=0 min or T=30 min)
- Format: biochemical
- ASSAY CONDITIONS: substrate 7-HCA added immediately (T=0 min); geometric mean of 2-5 determinations unless otherwise indicated; read-out: MAGL (T = 0 min) IC50
OBSERVABLE: IC50 (nM)

a = N#Cc1ccc(C2COC3(CCN(C(=O)O[C@H](CO)C(F)(F)F)CC3)C2)cc1 (single isomer, unassigned)
b = O=C(O[C@H](CO)C(F)(F)F)N1CCC2(CC1)CC(c1ccc(F)cc1F)CO2 (single isomer, unassigned)
[Q] Which of the two gives a bigger number for IC50: a or b ? Indicate which entry you chose by stating its label.
[A] a
(a: 33 nM, b: 10 nM)

1 = Cc1cnn(C2COC3(CCN(C(=O)O[C@H](CO)C(F)(F)F)CC3)C2)c1 (single isomer, unassigned)
2 = O=C(O[C@H](CO)C(F)(F)F)N1CCC2(CCC(n3cc(C(F)(F)F)cn3)CO2)CC1 (single isomer, unassigned)
[Q] Identify the entry with the smaller IC50: 1 or 2 . Indicate which entry you chose by stating its label.
[A] 2

A = O=C(O[C@H](CO)C(F)(F)F)N1CCC2(CC1)CC(n1cc(C(F)F)cn1)CO2 (single isomer, unassigned)
B = O=C(O[C@H](CO)C(F)(F)F)N1CCC2(CC1)CC(Oc1ccnc(C(F)(F)F)c1)C2
C = O=C(O[C@H](CO)C(F)(F)F)N1CCC2(CCC(c3ccc(F)cn3)CO2)CC1 (single isomer, unassigned)
[Q] Order each entry by recorded IC50, climbing from the minimum. Write the labels, ordered according to the request.
[A] B, C, A
(B: 5 nM, C: 69 nM, A: 107 nM)

----------
- ASSAYED SYSTEM: human recombinant Monoacylglycerol Lipase (Homo sapiens)
- ASSAY NOTES: MAGL enzymatic assay (IC50; 7-HCA substrate added at T=0 min or T=30 min)
- Assay type: biochemical
- ASSAY CONDITIONS: read-out: MAGL (T=30 min) IC50; 30 minute incubation of compound with MAGL enzyme before addition of 7-HCA substrate
pIC50: −log10 of the molar value.
OBSERVABLE: pIC50

> print(dat)
                                   compound  observable  experimental.value
1  O=C(OC(CO)C(F)(F)F)N1CCC2(CCC(c3ccc(F)cn3)CO2)CC1 (single isomer, unassigned) [diastereomer of Example 74]       pIC50                7.82

I = O=C(OC(CO)C(F)(F)F)N1CCC2(CCC(n3cc(C(F)F)cn3)CO2)CC1 (single isomer, unassigned) [diastereomer of Example 75]
II = O=C(OC(CO)C(F)(F)F)N1CCC2(CC1)CC(c1ccccn1)CO2 (single isomer, unassigned) [diastereomer of Example 41]
III = CN(C1CCOC2(CCN(C(=O)OC(CO)C(F)(F)F)CC2)C1)S(=O)(=O)CC1CC1 (single isomer, unassigned) [diastereomer of Example 50]
IV = O=C(O[C@H](CO)C(F)(F)F)N1CCC2(CC1)CC(n1ncc3ccccc31)CO2 (single isomer, unassigned) [diastereomer of Example 62]
[Q] Arrange by pIC50, high to low. Write the labels, ordered according to the request.
[A] I, II, IV, III

----------
- ASSAYED SYSTEM: human recombinant Monoacylglycerol Lipase (Homo sapiens)
- Sequence (Q99685 1-303): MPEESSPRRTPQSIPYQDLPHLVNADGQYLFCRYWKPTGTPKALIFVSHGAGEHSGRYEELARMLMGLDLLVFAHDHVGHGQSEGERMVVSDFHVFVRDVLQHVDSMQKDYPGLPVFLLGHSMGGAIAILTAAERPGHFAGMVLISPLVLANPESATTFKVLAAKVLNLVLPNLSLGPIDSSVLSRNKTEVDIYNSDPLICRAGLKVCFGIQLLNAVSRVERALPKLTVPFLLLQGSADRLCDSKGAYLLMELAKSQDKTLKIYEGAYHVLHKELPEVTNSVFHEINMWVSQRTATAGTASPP
- ASSAY NOTES: MAGL enzymatic assay (IC50; 7-HCA substrate added at T=0 min or T=30 min)
- Assay type: biochemical
- ASSAY CONDITIONS: substrate 7-HCA added immediately (T=0 min); geometric mean of 2-5 determinations unless otherwise indicated; read-out: MAGL (T = 0 min) IC50
OBSERVABLE: IC50 (nM)
// note: answer is a bare numeric in nM

Entry O=C(O[C@H](CO)C(F)(F)F)N1CCC2(CC1)CC(Oc1ccc(C(F)F)nc1)C2 , IC50 reported as 8

Entry CN(C1CC2(CCN(C(=O)O[C@H](CO)C(F)(F)F)CC2)C1)S(=O)(=O)CC1CC1 , IC50 reported as 52

Entry CN([C@H]1COC2(CCN(C(=O)O[C@H](CO)C(F)(F)F)CC2)C1)S(=O)(=O)C(C)(C)C , IC50 reported as 98

----------
Catalogue of pIC50 readings, one per entry.
- ASSAYED SYSTEM: human recombinant Monoacylglycerol Lipase (Homo sapiens)
- Sequence (Q99685 1-303): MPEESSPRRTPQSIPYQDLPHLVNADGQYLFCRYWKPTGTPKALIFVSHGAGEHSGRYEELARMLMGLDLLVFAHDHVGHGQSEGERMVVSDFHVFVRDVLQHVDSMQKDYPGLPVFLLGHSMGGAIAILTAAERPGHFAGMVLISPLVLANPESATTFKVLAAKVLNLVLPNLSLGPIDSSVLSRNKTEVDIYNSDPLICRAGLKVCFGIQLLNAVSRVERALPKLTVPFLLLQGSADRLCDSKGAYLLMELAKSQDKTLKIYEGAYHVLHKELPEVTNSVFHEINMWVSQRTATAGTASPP
- ASSAY NOTES: MAGL enzymatic assay (IC50; 7-HCA substrate added at T=0 min or T=30 min)
- Assay type: biochemical
- ASSAY CONDITIONS: MAGL (T = 30 min) IC50, substrate 7-HCA added after 30 minute incubation (T=30 min); geometric mean of 2-5 determinations unless otherwise indicated
To interpret pIC50, take it as minus log10 of a concentration measured in moles per litre.

Sample answers from the record:
> print(dat)
                                   molecule                            assayed.system  experimental.value
1  O=C(O[C@H](CO)C(F)(F)F)N1CCC2(CCC(n3cc(F)cn3)CO2)CC1 (single isomer, unassigned)  human recombinant Monoacylglycerol Lipase (Homo sapiens)                8.70
2  O=C(O[C@H](CO)C(F)(F)F)N1CCC2(CC1)CC(Oc1ccc(C(F)F)nc1)C2  human recombinant Monoacylglycerol Lipase (Homo sapiens)                9.00

Next:
Entry CN([C@H]1COC2(CCN(C(=O)O[C@H](CO)C(F)(F)F)CC2)C1)S(=O)(=O)C(C)(C)C , pIC50 reported as 8.10

----------
- ASSAYED SYSTEM: human recombinant Monoacylglycerol Lipase (Homo sapiens, UniProt Q99685)
- ASSAY NOTES: MAGL enzymatic assay (IC50; 7-HCA substrate added at T=0 min or T=30 min)
- Format: biochemical
- ASSAY CONDITIONS: MAGL (T = 30 min) IC50, substrate 7-HCA added after 30 minute incubation (T=30 min); geometric mean of 2-5 determinations unless otherwise indicated
pIC50: −log10 of the molar value.
OBSERVABLE: pIC50

Sample answers from the record:
> print(dat)
                                   compound  observable  experimental.value
1  N#Cc1cccc(OC2CC3(CCN(C(=O)O[C@H](CO)C(F)(F)F)CC3)C2)c1       pIC50                9.15
2  O=C(O[C@H](CO)C(F)(F)F)N1CCC2(CC1)CC(c1ccc(F)cn1)CO2 (single isomer, unassigned) [Example 16]       pIC50                8.05
3  O=C(O[C@H](CO)C(F)(F)F)N1CCC2(CC1)CC(c1ccc(C(F)(F)F)cn1)CO2 (single isomer, unassigned)       pIC50                8.52

a = O=C(O[C@H](CO)C(F)(F)F)N1CCC2(CC1)CC(Oc1cccc(C(F)F)n1)C2
b = CN(C(=O)C1CC(F)(F)C1)[C@H]1COC2(CCN(C(=O)O[C@H](CO)C(F)(F)F)CC2)C1
[Q] Identify the entry with the smaller pIC50: a or b . Indicate which entry you chose by stating its label.
[A] b

A = O=C(O[C@H](CO)C(F)(F)F)N1CCC2(CC1)CC(c1cc(C(F)F)ccn1)C2
B = N#Cc1ccc(C2CC3(CCN(C(=O)O[C@H](CO)C(F)(F)F)CC3)C2)nc1
C = O=C(O[C@H](CO)C(F)(F)F)N1CCC2(CC1)CC(Oc1cccc(C(F)F)c1)C2
D = N#Cc1cccc(C2COC3(CCN(C(=O)O[C@H](CO)C(F)(F)F)CC3)C2)c1F (single isomer, unassigned)
E = O=C(O[C@H](CO)C(F)(F)F)N1CCC2(CC1)CC(n1cc(F)cn1)C2
[Q] Arrange by pIC50, high to low. Write the labels, ordered according to the request.
[A] C, A, D, E, B

1 = N#Cc1cccc(C2CC3(CCN(C(=O)O[C@H](CO)C(F)(F)F)CC3)C2)c1
2 = O=C(O[C@H](CO)C(F)(F)F)N1CCC2(CC1)CC(c1ccc(C(F)(F)F)nc1)C2
[Q] Which of the two gives a bigger number for pIC50: 1 or 2 ? Indicate which entry you chose by stating its label.
[A] 1
(1: 9.00, 2: 8.70)

1 = N#Cc1ccc(C2COC3(CCN(C(=O)O[C@H](CO)C(F)(F)F)CC3)C2)cc1 (single isomer, unassigned)
2 = O=C(O[C@H](CO)C(F)(F)F)N1CCC2(CC1)CC(n1cc(C(F)(F)F)cn1)C2
3 = O=C(O[C@H](CO)C(F)(F)F)N1CCC2(CC1)CC(n1cc(C3CC3)cn1)C2
[Q] Order each entry by recorded pIC50, climbing from the minimum. Write the labels, ordered according to the request.
[A] 1, 2, 3
(1: 8.40, 2: 8.70, 3: 9.00)

1 = CN(C(=O)C1CC1)C1CC2(CCN(C(=O)O[C@H](CO)C(F)(F)F)CC2)C1
2 = O=C(O[C@H](CO)C(F)(F)F)N1CCC2(CC1)CC(c1ccccn1)CO2 (single isomer, unassigned)
3 = O=C(O[C@H](CO)C(F)(F)F)N1CCC2(CC1)CC(c1ccccc1F)CO2 (single isomer, unassigned) [Example 26]
[Q] Arrange by pIC50, high to low. Write the labels, ordered according to the request.
[A] 3, 1, 2
(3: 9.00, 1: 8.70, 2: 8.15)

I = O=C(O[C@H](CO)C(F)(F)F)N1CCC2(CC1)CC(c1cc(C(F)(F)F)ccn1)C2
II = CN(C1CC2(CCN(C(=O)O[C@H](CO)C(F)(F)F)CC2)C1)S(=O)(=O)c1ccccc1
[Q] Which of the two gives a bigger number for pIC50: I or II ? Indicate which entry you chose by stating its label.
[A] I

This collection of values is drawn from patent US10626125B2.
